attribute.measured: melting point (°C)

1) COc1cnc(N2CCN(c3ccc(-n4c(C)nn(CC(=O)c5ccc(Cl)cc5)c4=O)cc3)CC2)nc1 | 220
2) COc1ccc(-c2c(Cl)c(CN3C(=O)CCC3=O)nc3sc4c(c23)CCS(=O)(=O)C4)cc1 | 300

###

// reported melting point per item

1. CC(O)c1cc(C[C@H](NC(=O)c2c(Cl)cccc2Cl)C(=O)O)ccc1-c1ccccc1 (stereo not given in full) | 115 to 117 °C

Exercise: Which melting point value is on record for `CS(=O)(=O)c1ccc(-c2cc(C(=O)CCCO[N+](=O)[O-])nn2-c2ccc(F)cc2)cc1` ?
Key: 134 to 136 °C

Exercise: Same lookup for `CC(=O)c1ccc(Oc2cccnc2)cc1` , please.
Key: 45 to 50 °C

Exercise: Same lookup for `Nc1ccc(-c2nc3ccc(F)cc3s2)cc1` , please.
Key: 152 to 155 °C

Exercise: Same lookup for `COc1cccc(C(=O)N(C(=O)OCI)N(C(=O)c2cc(C)cc(C)c2)C(C)(C)C)c1C` , please.
Key: 70 to 72 °C

Exercise: Same lookup for `OC[C@H]1O[C@@H]1c1cc(F)cc(F)c1` , please.
Key: 48 to 50 °C

Exercise: Same lookup for `CCN(C(=O)n1occc1=O)c1ccc(Cl)cc1` , please.
Key: 149 °C

###

// reported melting point per item

Here are 5 compounds together with their reported answers.
1) Cc1ccc(-c2c(NS(=O)(=O)c3ccc(C(C)(C)C)cc3)ncnc2OCCOc2ccc(-c3nnn[nH]3)cc2)cc1 | 165 to 166 °C
2) Cn1ccc2c(c(=NO)c1=O)C=CCC2 | 225 to 226 °C
3) CCCOc1ccccc1-c1nc(O)cc(O)n1 | 224 to 225 °C
4) O=C(NC/C=C\COc1cc(CN2CCCCC2)ccn1)NC1CCCC1 | 121 to 124 °C
5) C=CCSc1ccc(Oc2ccc(C)cc2)nn1 | 115 to 117 °C

Exercise: Which melting point value is on record for `COc1ccc(CN(C)CCCCc2ccc(NC(=O)c3cccc4c(=O)c5cccc(F)c5[nH]c34)cc2)cc1OC` ?
Key: 131 °C

Exercise: Same lookup for `CN(CCN1CCC[C@@H](C(=O)O)C1)C1c2ccccc2CCc2ccccc21` , please.
Key: 187 to 190 °C

Exercise: Same lookup for O=CN1CCN(S(=O)(=O)CCCOc2ccc3c(c2)CC2NC(=O)NC2=N3)CC1 (stereo not given) , please.
Key: 285 to 288 °C

Exercise: Same lookup for `CCN(CC)CCCCC1CCN(CCNC(=O)N2c3ccccc3C(=O)Nc3cccnc32)CC1` , please.
Key: 167 °C

###

// reported melting point per item

Here are 5 compounds together with their reported answers.
1) CCOC(=O)CC(C)(O)c1ccc(C2CCCCC2)cc1 (stereo not given) | 45 °C
2) CC(C)(NC(=O)CCc1nccn1Cc1ccccc1)c1ccc(Cl)cc1 | 128 to 129 °C
3) O=c1ccc2c(-n3cnc(CO)c3)nccc2[nH]1 | 259 to 261 °C
4) Cn1nc(-c2ccc(Cl)cc2Cl)cc1O | 128 °C
5) Cc1sc(-c2ccccc2)nc1COc1cc(COc2ncccc2C#N)on1 | 135 to 136 °C

Exercise: Which melting point value is on record for COC(C(=O)O)C(=O)Nc1cc(Cl)cc(Cl)c1 (stereo not given) ?
Key: 142 to 145 °C

Exercise: Same lookup for `CCCCc1nn(-c2cc(N)ccc2Cl)c(C(=O)OCC)c1Cc1ccc(-c2ccccc2S(=O)(=O)NC(=O)c2ccccc2Cl)cc1` , please.
Key: > 75 °C

Exercise: Same lookup for `O=C(Cc1ccccc1Cl)Nc1ccc(C(=O)N2Cc3cccn3Cc3ccccc32)cc1` , please.
Key: 99 to 103 °C

Exercise: Same lookup for `COC(=O)c1cnc(N2CCNC2=O)s1` , please.
Key: 205 to 208 °C

Exercise: Same lookup for `O=S(=O)(Cl)c1cccc2[nH]nnc12` , please.
Key: 173 to 175 °C
